Entry source: patent US6506772B1

# TARGET_DESC: HA1 adenosine receptor (Homo sapiens, UniProt P30542)
# Sequence (P30542 1-326): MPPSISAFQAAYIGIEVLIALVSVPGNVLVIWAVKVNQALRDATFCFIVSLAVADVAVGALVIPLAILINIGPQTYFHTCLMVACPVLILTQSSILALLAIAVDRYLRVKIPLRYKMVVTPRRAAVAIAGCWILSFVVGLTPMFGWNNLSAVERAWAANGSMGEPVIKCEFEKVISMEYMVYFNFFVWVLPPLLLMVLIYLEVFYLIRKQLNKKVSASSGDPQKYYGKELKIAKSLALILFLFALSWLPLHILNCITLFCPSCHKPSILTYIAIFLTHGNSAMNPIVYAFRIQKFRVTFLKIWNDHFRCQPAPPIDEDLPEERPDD
# TEST_SUMMARY: Human adenosine A1 receptor affinity (Ki hA1)
# Type: binding
# TEST_PARAMETERS: affinity to human adenosine A1 receptor
RECORDED_METRIC: Ki (nM)

Nc1cc(C(=O)N2CCCCC2)cc2nc(-c3ccccc3O)nn12 :: 978
CCN(CC)C(=O)c1cc(N)n2nc(-c3cccs3)nc2c1 :: 1970
CCN(CC)C(=O)C1CCCN(C(=O)c2cc(N)n3nc(-c4ccc(Br)o4)nc3c2)C1 (stereo not drawn) :: 1060

I = Nc1cc(C(=O)NCc2ccccc2Br)cc2nc(-c3cc(Br)co3)nn12
II = Nc1cc(C(=O)N(CCc2ccccc2)Cc2ccccc2)cc2nc(-c3ccc[nH]3)nn12
III = CCN(C(=O)c1cc(N)n2nc(-c3ccc(Br)o3)nc2c1)C(C)C
IV = CCCCNC(=O)c1cc(N)n2nc(-c3cc(Br)co3)nc2c1
# rank_down: sort by Ki, max first Answer format: the labels, in the requested order.
II, III, IV, I
(II: 729 nM, III: 81 nM, IV: 47.2 nM, I: 22.6 nM)

###

# TARGET_DESC: human adenosine A2A receptor (Homo sapiens)
# Construct: expressed in transfected cells; host or cells: CHO cells, Semliki Forest virus expression system; membrane preparation
# Sequence (P29274 whole entry): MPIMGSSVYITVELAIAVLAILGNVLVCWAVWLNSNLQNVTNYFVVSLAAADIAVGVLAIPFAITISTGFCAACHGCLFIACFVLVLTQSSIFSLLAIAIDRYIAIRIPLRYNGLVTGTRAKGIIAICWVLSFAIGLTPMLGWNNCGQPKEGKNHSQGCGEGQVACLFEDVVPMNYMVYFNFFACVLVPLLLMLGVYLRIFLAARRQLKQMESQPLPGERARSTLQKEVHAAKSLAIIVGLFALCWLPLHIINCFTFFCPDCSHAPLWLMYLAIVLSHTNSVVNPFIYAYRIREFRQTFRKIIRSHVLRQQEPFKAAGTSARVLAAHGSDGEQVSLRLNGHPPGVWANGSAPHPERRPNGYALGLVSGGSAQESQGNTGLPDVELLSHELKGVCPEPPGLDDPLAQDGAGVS
# TEST_SUMMARY: Human adenosine A2A receptor [3H]-SCH-58261 binding assay
# TEST_PARAMETERS: affinity to human adenosine A2A receptor; read-out: Ki HA2A
RECORDED_METRIC: Ki (nM)

Examples from the recorded data:
CC1CCN(C(=O)c2cc(N)n3nc(-c4nccs4)nc3c2)CC1 [Example 330] :: 64.4
Nc1cc(C(=O)N2CCCCCCC2)cc2nc(-c3nccs3)nn12 [Example 332] :: 17.2
CCN(Cc1ccccc1)C(=O)c1cc(N)n2nc(-c3ccc[nH]3)nc2c1 [Example 94] :: 395
CCN(Cc1ccncc1)C(=O)c1cc(N)n2nc(-c3ccc(Br)o3)nc2c1 [Example 314] :: 1.2
Nc1cc(C(=O)N(CCc2ccccc2)Cc2ccccc2)cc2nc(-c3cccnc3)nn12 [Example 90] :: 144
Nc1cc(C(=O)NCc2ccccc2Cl)cc2nc(-c3ccco3)nn12 [Example 109] :: 2.9
COc1ccc(-c2nc3cc(C(=O)NCc4ccccc4Cl)cc(N)n3n2)s1 [Example 56] :: 82

P = C=CCN(C(=O)c1cc(N)n2nc(-c3ccc(Br)o3)nc2c1)C1CCCCC1 [Example 348]
Q = C=CCN(C(=O)c1cc(N)n2nc(-c3ccc(Br)o3)nc2c1)C1CCCC1 [Example 344]
Lab log: flag the item ( P or Q ) with the smaller Ki figure. Reply with the label of the item you choose.
Q
(Q: 1.6 nM, P: 2.6 nM)
